# EC50 per record follows
# Test system: TNFα
# protocol text: cells
# Assay type: cell-based, human
# experimental context: Homo sapiens, Monocyte, LPS-stimulated human monocytes, TNFα content; read-out: EC50 TNF
Write the number in nM without appending the unit.

These recorded examples may help you get a feel for the data.
CC(C)(O)[C@H](F)CNC(=O)c1cnc(-c2ccc3cc(C#N)cnn23)cc1Nc1ccccc1
95
CC(C)(O)[C@H](F)CNC(=O)c1cnc(-c2ccc3cc(C#N)cnn23)cc1Nc1ncc(C#N)cn1
122

Please look at the following compound next.
Input: I have this compound here, `CC1(F)CN(C(=O)C23CCC(Nc4cc(-c5ccc6cc(C#N)cnn56)ncc4C(=O)NC[C@@H](F)C(C)(C)O)(CC2)CC3)C1` , and I need its recorded EC50.
Output: 68
